# target.system: CK1d (Homo sapiens, UniProt P48730)
# Construct: purchased ReactionBiology
# Sequence (P48730 whole entry): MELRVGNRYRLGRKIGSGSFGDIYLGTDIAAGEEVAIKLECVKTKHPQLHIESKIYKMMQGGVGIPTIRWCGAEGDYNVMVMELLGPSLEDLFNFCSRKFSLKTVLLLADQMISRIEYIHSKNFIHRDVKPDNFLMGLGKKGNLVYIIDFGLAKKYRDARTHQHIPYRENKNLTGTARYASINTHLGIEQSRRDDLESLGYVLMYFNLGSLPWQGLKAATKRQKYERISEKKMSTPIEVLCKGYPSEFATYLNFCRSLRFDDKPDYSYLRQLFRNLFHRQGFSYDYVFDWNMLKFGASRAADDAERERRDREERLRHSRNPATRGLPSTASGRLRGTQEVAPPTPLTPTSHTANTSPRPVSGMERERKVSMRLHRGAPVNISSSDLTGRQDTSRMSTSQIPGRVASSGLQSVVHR
# assay.details: Kinase activity test (ReactionBiology), % enzyme activity relative to DMSO
# Assay type: biochemical
# protocol.conditions: CK1d; 1 uM; Average
Reported % Enzyme Activity (relative to DMSO controls), Average values for the following molecules.
parameter.measured: % Enzyme Activity (relative to DMSO controls), Average (%)

molecule | observed.measurement
CCCCC[C@H](O)/C=C/[C@H]1[C@H](O)CC(=O)[C@@H]1CCCCCCC(=O)O | 100.17
O=c1[nH]cc(F)c(=O)[nH]1 | 104.91
CN[C@H]1CC[C@@H](c2ccc(Cl)c(Cl)c2)c2ccccc21 | 106.53
CC1=Nc2ccc(Cl)cc2S(=O)(=O)N1 [Diazoxide] | 95.10
CN1CC(=O)N2[C@H](c3ccc4c(c3)OCO4)c3[nH]c4ccccc4c3C[C@@H]2C1=O | 103.78
O=C(N[C@H](CO)[C@H](O)c1ccc([N+](=O)[O-])cc1)C(Cl)Cl | 107.32
CC(C)CN(C[C@@H](O)[C@H](Cc1ccccc1)NC(=O)O[C@H]1CCOC1)S(=O)(=O)c1ccc(N)cc1 | 107.55
CO[C@@]12[C@H](COC(N)=O)C3=C(C(=O)C(C)=C(N)C3=O)N1C[C@@H]1N[C@@H]12 | 98.48
CCCCNc1ccc(C(=O)OCCN(C)C)cc1 | 110.04

----------
Reported remaining activity at 1 µM values for the following compounds.
# target.system: DAPK1 (Homo sapiens, UniProt P53355)
# Construct: purchased ReactionBiology
# Sequence (P53355 whole entry): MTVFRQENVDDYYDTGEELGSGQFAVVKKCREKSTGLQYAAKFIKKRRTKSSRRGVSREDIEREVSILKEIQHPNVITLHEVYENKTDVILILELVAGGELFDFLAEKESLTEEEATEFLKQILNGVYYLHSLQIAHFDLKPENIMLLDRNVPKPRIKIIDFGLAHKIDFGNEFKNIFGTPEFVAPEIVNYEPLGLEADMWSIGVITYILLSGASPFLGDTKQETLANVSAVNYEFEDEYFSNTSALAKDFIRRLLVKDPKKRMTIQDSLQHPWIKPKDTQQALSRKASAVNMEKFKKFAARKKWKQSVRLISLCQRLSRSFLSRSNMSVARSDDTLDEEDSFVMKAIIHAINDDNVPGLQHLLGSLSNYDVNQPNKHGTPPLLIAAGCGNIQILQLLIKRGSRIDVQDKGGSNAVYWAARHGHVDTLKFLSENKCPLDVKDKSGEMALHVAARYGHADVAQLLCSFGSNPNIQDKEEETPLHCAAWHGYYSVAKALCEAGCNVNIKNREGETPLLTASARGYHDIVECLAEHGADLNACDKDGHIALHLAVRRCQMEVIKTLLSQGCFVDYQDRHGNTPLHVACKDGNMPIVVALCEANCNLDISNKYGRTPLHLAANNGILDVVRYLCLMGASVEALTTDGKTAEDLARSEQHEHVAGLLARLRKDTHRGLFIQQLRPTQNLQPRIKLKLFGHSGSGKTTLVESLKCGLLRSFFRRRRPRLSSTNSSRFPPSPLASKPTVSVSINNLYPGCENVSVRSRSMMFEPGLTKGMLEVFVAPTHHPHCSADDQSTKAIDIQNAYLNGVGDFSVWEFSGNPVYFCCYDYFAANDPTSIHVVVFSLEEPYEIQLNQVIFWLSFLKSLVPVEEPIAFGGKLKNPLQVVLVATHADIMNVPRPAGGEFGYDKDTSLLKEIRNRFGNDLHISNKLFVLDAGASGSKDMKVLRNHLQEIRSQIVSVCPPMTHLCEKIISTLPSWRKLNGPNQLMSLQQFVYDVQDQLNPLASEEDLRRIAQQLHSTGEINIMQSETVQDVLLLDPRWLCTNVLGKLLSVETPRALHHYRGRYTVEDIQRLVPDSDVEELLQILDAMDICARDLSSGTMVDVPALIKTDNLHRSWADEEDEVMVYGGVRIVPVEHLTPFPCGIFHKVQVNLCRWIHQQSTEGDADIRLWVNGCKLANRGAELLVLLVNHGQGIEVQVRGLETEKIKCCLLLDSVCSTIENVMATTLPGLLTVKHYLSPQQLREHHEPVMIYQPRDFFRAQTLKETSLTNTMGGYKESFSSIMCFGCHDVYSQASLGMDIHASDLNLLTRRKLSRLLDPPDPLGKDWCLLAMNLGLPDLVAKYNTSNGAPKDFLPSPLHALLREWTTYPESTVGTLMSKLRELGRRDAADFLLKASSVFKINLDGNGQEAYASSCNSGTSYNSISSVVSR
# assay.details: Kinase activity test (ReactionBiology), % enzyme activity relative to DMSO
# Assay type: biochemical
# protocol.conditions: DAPK1; 1 uM; replicate Data 2; read-out: % Enzyme Activity (relative to DMSO controls), Data 2

compound | remaining activity at 1 µM [%]
NCCCCCC(=O)O [Aminocaproic acid] | 112
CC(C)(C)NC(=O)[C@@H]1C[C@@H]2CCCC[C@@H]2CN1C[C@@H](O)[C@H](Cc1ccccc1)NC(=O)[C@H](CC(N)=O)NC(=O)c1ccc2ccccc2n1 [Saquinavir, reference compound] | 85.3
Cc1nc(Nc2ncc(C(=O)Nc3c(C)cccc3Cl)s2)cc(N2CCN(CCO)CC2)n1 [Dasatinib, reference compound] | 92.1
CN(C)CCOc1ccc(/C(=C(/CCCl)c2ccccc2)c2ccccc2)cc1 [Toremifene, reference compound] | 110
NC(=O)c1cccnc1 [Niacinamide, reference compound] | 110
Cc1cccc(C)c1OCC(=O)N[C@@H](Cc1ccccc1)[C@@H](O)C[C@H](Cc1ccccc1)NC(=O)[C@H](C(C)C)N1CCCNC1=O [Lopinavir, reference compound] | 93.2
C=CC(=O)N1CCC[C@@H](n2nc(-c3ccc(Oc4ccccc4)cc3)c3c(N)ncnc32)C1 [Ibrutinib, reference compound] | 93.8
C[C@]12CC[C@@H]3c4ccc(O)cc4CC[C@H]3[C@@H]1CC[C@@H]2O [Estradiol, reference compound] | 123

----------
# target.system: NEK2 (Homo sapiens)
# Construct: purchased ReactionBiology
# Sequence (P51955 1-445): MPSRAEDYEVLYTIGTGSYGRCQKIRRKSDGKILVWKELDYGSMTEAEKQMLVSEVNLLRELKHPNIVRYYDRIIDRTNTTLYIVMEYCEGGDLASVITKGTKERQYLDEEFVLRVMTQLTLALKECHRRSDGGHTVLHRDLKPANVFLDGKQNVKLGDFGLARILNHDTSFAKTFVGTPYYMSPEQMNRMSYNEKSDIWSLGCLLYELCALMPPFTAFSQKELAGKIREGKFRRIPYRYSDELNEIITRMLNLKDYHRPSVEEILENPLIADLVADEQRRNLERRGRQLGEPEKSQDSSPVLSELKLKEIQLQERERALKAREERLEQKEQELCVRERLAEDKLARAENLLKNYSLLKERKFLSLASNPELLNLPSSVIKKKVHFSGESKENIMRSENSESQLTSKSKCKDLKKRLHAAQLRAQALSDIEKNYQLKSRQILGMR
# assay.details: Kinase activity test (ReactionBiology), % enzyme activity relative to DMSO
# Format: biochemical
# protocol.conditions: NEK2; 10 uM; Average
Reported % Enzyme Activity (relative to DMSO controls), Average values for the following compounds.
parameter.measured: % Enzyme Activity (relative to DMSO controls), Average

compound | observed.measurement
C[C@H](O)[C@H](O)[C@H]1CNc2nc(N)[nH]c(=O)c2N1 | 93.52%
CCc1nc(N)nc(N)c1-c1ccc(Cl)cc1 | 102.63%
Nc1nc2[nH]cnc2c(=S)[nH]1 | 107.92%
N[C@H]1C(O)O[C@H](CO)[C@@H](O)[C@@H]1O (stereo partly drawn) | 95.78%
Cc1nnc(C(C)C)n1C1C[C@H]2CC[C@@H](C1)N2CC[C@H](NC(=O)C1CCC(F)(F)CC1)c1ccccc1 (stereo in doubt) | 100.82%
Nc1nc2c(ncn2COCCO)c(=O)[nH]1 | 100.63%
O=C(O)c1cc(-c2ccc(F)cc2F)ccc1O | 102.79%
Cc1nc(=O)c2cc(CN(C)c3ccc(C(=O)N[C@@H](CCC(=O)O)C(=O)O)s3)ccc2[nH]1 | 95.93%
CC(=O)CCCCn1c(=O)c2c(ncn2C)n(C)c1=O | 88.11%

----------
# System: human PBMCs (responder cells) with RPMI1788 stimulator cells
# assay.details: Mixed Lymphocyte Reaction (MLR, T cell assay), 3H-thymidine incorporation
# Type: cell-based
# protocol.conditions: Homo sapiens, RPMI-1788, read-out: T-cell efficacy, MLR IC 50 (µM) Mean

molecule | IC50 / µM
Oc1cc(Cl)ccc1Oc1ccc(Cl)cc1Cl [Triclosan, reference compound] | 34.3

----------
# assay.details: WST-1 cytotoxicity assay on RPMI1788 cells (B-cell line)
# Assay type: cell-based, human
# protocol.conditions: human, RPMI1788 cells (B-cell line), mean of 4 independent measures, read-out: Cytotoxicity, WST-1 RPMI 1788 IC 50 (µM) Mean
parameter.measured: IC50 at 48 h

molecule | observed.measurement
CCN(CC)Cc1cc(Nc2ccnc3cc(Cl)ccc23)ccc1O [Amodiaquine, reference compound] | 28.1 µM
Cc1cc(C#N)cc(C)c1Oc1nc(Nc2ccc(C#N)cc2)nc(N)c1Br [Etravirine, reference compound] | 8 µM
N[C@@H](Cc1cc(I)c(Oc2cc(I)c(O)c(I)c2)c(I)c1)C(=O)O [Thyroxine, reference compound] | > 50 µM
Nc1ccc2cc3ccc(N)cc3nc2c1 [Proflavine, reference compound] | 3.01 µM
C[C@@H]1CCN(C(=O)CC#N)C[C@@H]1N(C)c1ncnc2[nH]ccc12 | > 50 µM
CN1CCN(CCCN2c3ccccc3Sc3ccc(Cl)cc32)CC1 [Prochlorperazine, reference compound] | 9.63 µM
C=CC(=O)N1CCC[C@@H](n2nc(-c3ccc(Oc4ccccc4)cc3)c3c(N)ncnc32)C1 [Ibrutinib, reference compound] | 0.7 µM
C[C@]12CC[C@@H]3c4ccc(O)cc4CC[C@H]3[C@@H]1CC[C@@H]2O [Estradiol, reference compound] | 35.9 µM
Nc1ncnc2c1ncn2[C@@H]1O[C@H](CO)[C@@H](O)[C@H]1O [Adenosine, reference compound] | > 50 µM
Oc1c(Cl)cc(Cl)c(Cl)c1Cc1c(O)c(Cl)cc(Cl)c1Cl [Hexachlorophene, reference compound] | 4.2 µM
Oc1cc(Cl)ccc1Oc1ccc(Cl)cc1Cl [Triclosan, reference compound] | 27.7 µM
CC/C(=C(/CC)c1ccc(O)cc1)c1ccc(O)cc1 [Diethylstilbestrol, reference compound] | 31.4 µM
Cc1nc(Nc2ncc(C(=O)Nc3c(C)cccc3Cl)s2)cc(N2CCN(CCO)CC2)n1 [Dasatinib, reference compound] | 0.0324 µM
NC(=O)c1cccnc1 [Niacinamide, reference compound] | > 50 µM
Cc1ccc(C(=O)Nc2ccc(S(=O)(=O)O)c3cc(S(=O)(=O)O)cc(S(=O)(=O)O)c23)cc1NC(=O)c1cccc(NC(=O)Nc2cccc(C(=O)Nc3cc(C(=O)Nc4ccc(S(=O)(=O)O)c5cc(S(=O)(=O)O)cc(S(=O)(=O)O)c45)ccc3C)c2)c1 [Suramin, reference compound] | > 50 µM

----------
# target.system: DAPK1 (Homo sapiens, UniProt P53355)
# Construct: purchased ReactionBiology
# assay.details: Kinase activity test (ReactionBiology), % enzyme activity relative to DMSO
# Type: biochemical
# protocol.conditions: DAPK1; 10 uM; Average
parameter.measured: % Enzyme Activity (relative to DMSO controls), Average (%)

compound | observed.measurement
OC(Cn1cncn1)(Cn1cncn1)c1ccc(F)cc1F | 95.87
CN1[C@@H]2CC[C@H]1C[C@@H](OC(=O)c1c[nH]c3ccccc13)C2 | 91.18
CC(C)C[C@H](NC(=O)[C@H](Cc1ccccc1)NC(=O)c1cnccn1)B(O)O | 92.04
C=C[C@H]1CN2CC[C@H]1C[C@@H]2[C@@H](O)c1ccnc2ccc(OC)cc12 | 96.54
COC(=O)N[C@H](C(=O)N[C@@H](Cc1ccccc1)[C@@H](O)CN(Cc1ccc(-c2ccccn2)cc1)NC(=O)[C@@H](NC(=O)OC)C(C)(C)C)C(C)(C)C | 74.66
C[C@@H]1O[C@@H]1P(=O)(O)O | 92.74
NC[C@H](O)c1ccc(O)c(O)c1 [Norepinephrine] | 92.90
Cc1ccnc2c1NC(=O)c1cccnc1N2C1CC1 | 95.31
Cc1ccc(Nc2c(F)cccc2Cl)c(CC(=O)O)c1 | 101.02
Cn1c(=O)c2[nH]cnc2n(C)c1=O | 98.91
O=C(N[C@H](CO)[C@H](O)c1ccc([N+](=O)[O-])cc1)C(Cl)Cl | 99.12
